Tested on: panel of 140 standard cancer cell lines
methodSummary: ProliFiler-140 cancer cell line screen (CellTiterGlo, 72 h)
Format: cell-based
recordedConditions: Jurkat (Blood); listed as Dox; read-out: IC50 [M] (ProliFiler-140)

compound: COc1cccc2c1C(=O)c1c(O)c3c(c(O)c1C2=O)C[C@@](O)(C(=O)CO)C[C@@H]3O[C@H]1C[C@H](N)[C@H](O)[C@H](C)O1 [doxorubicin, reference compound]
IC50 (M): 4e-08

----------
Tested on: NCI-60 standardized human tumor cell line panel
methodSummary: cells
Type: cell-based
recordedConditions: HCC-2998; read-out: GI50
assayMetric: GI50

compound: COc1cc2cc(C(=O)N3C[C@@H](CCl)c4c3cc(OC(=O)N(CCC(=O)N3CCN(C)CC3)[C@H]3CCSSC3)c3ccccc43)[nH]c2c(OC)c1OC
assayMetric: GI50
reading: 0.16 µM
--
compound: COc1cc2cc(C(=O)N3C[C@@H](CCl)c4c3cc(OC(=O)N(C)CCSSCCN3CCOCC3)c3ccccc43)[nH]c2c(OC)c1OC [SS00M-CBI-TMI]
assayMetric: GI50
reading: 0.078 µM
--
compound: COc1cc2cc(C(=O)N3C[C@@H](CCl)c4c3cc(OC(=O)N(CCC(=O)N3CCN(C)CC3)C3CCCCC3)c3ccccc43)[nH]c2c(OC)c1OC
assayMetric: GI50
reading: 1.5 µM
--
compound: COc1cc2cc(C(=O)N3CC(CCl)c4c3cc(OC(=O)N3CCN(C)C5CSSCC53)c3ccccc43)[nH]c2c(OC)c1OC (mixture of isomers) [Me-SS66T-CBI-TMI]
assayMetric: GI50
reading: 0.015 µM
--
compound: COc1cc2cc(C(=O)N3CC(CCl)c4c3cc(OC(=O)N3CCN(C)C5CSSCC53)c3ccccc43)[nH]c2c(OC)c1OC (mixture of isomers) [Me-SS66C-CBI-TMI]
assayMetric: GI50
reading: 0.14 µM

----------
Measured log10 GI50 values are reported for all entries that follow.
Test system: NCI-60 standardized human tumor cell line panel
methodSummary: cells
Type: cell-based
recordedConditions: UO-31; AZI sheet; read-out: GI50
assayMetric: log10 GI50 (log10 of the value in nM)

compound: O=C(c1cc2cc(OCCCN3CCC3)ccc2[nH]1)N1C[C@@H](CCl)c2c1cc(OCc1ccccc1)c1ccccc21
assayMetric: log10 GI50
reading: 2.41

compound: CN(CCSSCCN1CCOCC1)C(=O)Oc1cc2c(c3ccccc13)[C@H](CCl)CN2C(=O)c1cc2cc(OCCCN3CCC3)ccc2[nH]1 [SS00M-CBI-AZI]
assayMetric: log10 GI50
reading: 1.64

compound: CN1CCN(C(=O)CCN(C(=O)Oc2cc3c(c4ccccc24)[C@H](CCl)CN3C(=O)c2cc3cc(OCCCN4CCC4)ccc3[nH]2)[C@H]2CCSSC2)CC1
assayMetric: log10 GI50
reading: 2.28

compound: CN1CCN(C(=O)Oc2cc3c(c4ccccc24)C(CCl)CN3C(=O)c2cc3cc(OCCCN4CCC4)ccc3[nH]2)C2CSSCC21 (mixture of isomers) [Me-SS66C-CBI-AZI]
assayMetric: log10 GI50
reading: 1.08

compound: CN1CCN(C(=O)Oc2cc3c(c4ccccc24)C(CCl)CN3C(=O)c2cc3cc(OCCCN4CCC4)ccc3[nH]2)C2CSSCC21 (mixture of isomers) [Me-SS66T-CBI-AZI]
assayMetric: log10 GI50
reading: 0.58

----------
Tested on: NCI-60 standardized human tumor cell line panel
methodSummary: cells
Format: cell-based
recordedConditions: IGROV1; read-out: GI50
# label = Condition met if GI50 < 500 nM else Condition not met

molecule: COc1cc2cc(C(=O)N3CC(CCl)c4c3cc(OC(=O)N3CCN(C)C5CSSCC53)c3ccccc43)[nH]c2c(OC)c1OC (mixture of isomers) [Me-SS66C-CBI-TMI]
classification: Condition not met
--
molecule: COc1cc2cc(C(=O)N3C[C@@H](CCl)c4c3cc(OC(=O)N(CCC(=O)N3CCN(C)CC3)C3CCCCC3)c3ccccc43)[nH]c2c(OC)c1OC
classification: Condition not met
--
molecule: COc1cc2cc(C(=O)N3C[C@@H](CCl)c4c3cc(OC(=O)N(C)CCSSCCN3CCOCC3)c3ccccc43)[nH]c2c(OC)c1OC [SS00M-CBI-TMI]
classification: Condition met
--
molecule: COc1cc2cc(C(=O)N3CC(CCl)c4c3cc(OC(=O)N3CCN(C)C5CSSCC53)c3ccccc43)[nH]c2c(OC)c1OC (mixture of isomers) [Me-SS66T-CBI-TMI]
classification: Condition met

----------
Tested on: panel of 140 standard cancer cell lines
methodSummary: ProliFiler-140 cancer cell line screen (CellTiterGlo, 72 h)
Assay type: cell-based
recordedConditions: Homo sapiens, RL95-2, read-out: IC50 [M] (ProliFiler-140), RL95-2 (Endometrium)
assayMetric: IC50 (M)

compound: COc1cc2cc(C(=O)N3C[C@@H](CCl)c4c3cc(OC(=O)N3CCN(C(=O)CCC(=O)N5CCN(C)CC5)[C@H]5CSSC[C@H]53)c3ccccc43)[nH]c2c(OC)c1OC [P-SS66C-CBI-TMI]
targetSystem: panel of 140 standard cancer cell lines
assayMetric: IC50
reading: 1.25e-07

----------
Test system: NCI-60 standardized human tumor cell line panel
methodSummary: cells
Type: cell-based
recordedConditions: HOP-62; AZI sheet; read-out: GI50

compound: CN(CCSSCCN1CCOCC1)C(=O)Oc1cc2c(c3ccccc13)[C@H](CCl)CN2C(=O)c1cc2cc(OCCCN3CCC3)ccc2[nH]1 [SS00M-CBI-AZI]
GI50, nM: 2.5
--
compound: CN1CCN(C(=O)Oc2cc3c(c4ccccc24)C(CCl)CN3C(=O)c2cc3cc(OCCCN4CCC4)ccc3[nH]2)C2CSSCC21 (mixture of isomers) [Me-SS66T-CBI-AZI]
GI50, nM: 5.2
--
compound: CN1CCN(C(=O)CCN(C(=O)Oc2cc3c(c4ccccc24)[C@H](CCl)CN3C(=O)c2cc3cc(OCCCN4CCC4)ccc3[nH]2)[C@H]2CCSSC2)CC1
GI50, nM: 150
--
compound: CN1CCN(C(=O)Oc2cc3c(c4ccccc24)C(CCl)CN3C(=O)c2cc3cc(OCCCN4CCC4)ccc3[nH]2)C2CSSCC21 (mixture of isomers) [Me-SS66C-CBI-AZI]
GI50, nM: 9.6
--
compound: O=C(c1cc2cc(OCCCN3CCC3)ccc2[nH]1)N1C[C@@H](CCl)c2c1cc(OCc1ccccc1)c1ccccc21
GI50, nM: 140

----------
Measured IC50(HeLa)/IC50(A549) values are reported for all entries that follow.
System: HeLa-HRE cells
methodSummary: Resazurin cytotoxicity assay, HeLa-HRE, 48 h
recordedConditions: ratio HeLa vs A549

molecule: COC(=O)Oc1cc2c(c3ccccc13)[C@H](CCl)CN2C(=O)c1cc2cc(OCCCN3CCC3)ccc2[nH]1
IC50(HeLa)/IC50(A549): 0.5
--
molecule: CN(CCSSCCN1CCOCC1)C(=O)Oc1cc2c(c3ccccc13)[C@H](CCl)CN2C(=O)c1cc2cc(OCCCN3CCC3)ccc2[nH]1 [SS00M-CBI-AZI]
IC50(HeLa)/IC50(A549): 1.7
--
molecule: CN1CCN(C(=O)CCN(C(=O)Oc2cc3c(c4ccccc24)[C@H](CCl)CN3C(=O)c2cc3cc(OCCCN4CCC4)ccc3[nH]2)[C@H]2CCSSC2)CC1
IC50(HeLa)/IC50(A549): 8.9
--
molecule: CN(C(=O)Oc1cc2c(c3ccccc13)[C@H](CCl)CN2C(=O)c1cc2cc(OCCCN3CCC3)ccc2[nH]1)[C@H]1CCS[Se]C1
IC50(HeLa)/IC50(A549): 0.8
--
molecule: CN1CCN(C(=O)Oc2cc3c(c4ccccc24)C(CCl)CN3C(=O)c2cc3cc(OCCCN4CCC4)ccc3[nH]2)C2CSSCC21 (mixture of isomers) [Me-SS66T-CBI-AZI]
IC50(HeLa)/IC50(A549): 1.0
--
molecule: CN1CCN(C(=O)Oc2cc3c(c4ccccc24)C(CCl)CN3C(=O)c2cc3cc(OCCCN4CCC4)ccc3[nH]2)C2CSSCC21 (mixture of isomers) [Me-SS66C-CBI-AZI]
IC50(HeLa)/IC50(A549): 33

----------
Tested on: panel of 140 standard cancer cell lines
methodSummary: ProliFiler-140 cancer cell line screen (CellTiterGlo, 72 h)
Format: cell-based
recordedConditions: Homo sapiens, SK-ES1, read-out: IC50 [M] (ProliFiler-140), SK-ES-1 (Bone)
Method: Incubations were performed for 72 h before automated viability readout with CellTiterGlo (Figure 8). End of Figure S11 (part 5 of 5): ProliFiler-140 cancer cell line screening for cytotoxicity of the prodrugs. 8-data-point dose response curves from CellTiter-Glo® viability readout. ProliFiler-140 cell line panel part V

molecule: COc1cc2cc(C(=O)N3C[C@@H](CCl)c4c3cc(OC(=O)N3CCN(C(=O)CCC(=O)N5CCN(C)CC5)[C@H]5CSSC[C@H]53)c3ccccc43)[nH]c2c(OC)c1OC [P-SS66C-CBI-TMI]
IC50: 2.71e-09 M
